- EXPERIMENTAL_TARGET: bombesin/GRP receptor (Mus musculus)
- Construct: Pancreata from mice were pooled and chopped at 350 µm with a tissue chopper; from tissue; host or cells: chopped mouse pancreas
- Sequence (P21729 whole entry): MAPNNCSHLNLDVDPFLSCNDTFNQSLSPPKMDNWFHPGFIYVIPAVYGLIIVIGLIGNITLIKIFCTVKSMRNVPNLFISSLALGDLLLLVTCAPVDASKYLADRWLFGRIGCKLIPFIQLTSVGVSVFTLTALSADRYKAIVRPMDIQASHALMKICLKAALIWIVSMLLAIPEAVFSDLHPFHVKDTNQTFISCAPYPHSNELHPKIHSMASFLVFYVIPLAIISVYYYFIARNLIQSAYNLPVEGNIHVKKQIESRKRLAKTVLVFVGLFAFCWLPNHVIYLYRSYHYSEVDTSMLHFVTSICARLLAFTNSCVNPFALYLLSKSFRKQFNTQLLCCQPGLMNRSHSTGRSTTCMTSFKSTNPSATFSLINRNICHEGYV
- TEST_NAME: Competition at the receptor for iodinated GRP (binding to murine pancreatic membranes)
- Design: species or system mice
- MEASUREMENT_CONTEXT: Kd (nM), receptor affinity; competition for iodinated GRP binding, murine pancreatic membranes

COMPOUND	Kd
CC(C)C[C@@H](C(N)=O)[S+]([O-])C[C@H](Cc1ccccc1)NC(=O)[C@H](Cc1c[nH]cn1)NC(=O)CNC(=O)[C@@H](NC(=O)[C@H](C)NC(=O)[C@H](Cc1c[nH]c2ccccc12)NC(=O)[C@H](CCC(N)=O)NC(=O)[C@@H]1CCC(=O)N1)C(C)C (single isomer, unassigned) [pQ Q W A V G H FΨ[CH₂S(O)]^IIL#]	1 nM
CC(C)C[C@@H](C(N)=O)[S+]([O-])C[C@H](Cc1ccccc1)NC(=O)[C@H](Cc1c[nH]cn1)NC(=O)CNC(=O)[C@@H](NC(=O)[C@H](C)NC(=O)[C@H](Cc1c[nH]c2ccccc12)NC(=O)[C@H](CCC(N)=O)NC(=O)[C@@H]1CCC(=O)N1)C(C)C (single isomer, unassigned) [pQ Q W A V G H FΨ[CH₂S(O)]^IL#]	2 nM
CCCC[C@H](SC[C@H](Cc1ccccc1)NC(=O)[C@H](Cc1c[nH]cn1)NC(=O)CNC(=O)[C@@H](NC(=O)[C@H](C)NC(=O)[C@H](Cc1c[nH]c2ccccc12)NC(=O)[C@H](CCC(N)=O)NC(=O)[C@@H]1CCC(=O)N1)C(C)C)C(N)=O [pQ Q W A V G H FΨ [CH₂S]Z#]	4 nM
CC(C)C[C@H](SC[C@H](Cc1ccccc1)NC(=O)[C@H](Cc1c[nH]cn1)NC(=O)CNC(=O)[C@@H](NC(=O)[C@H](C)NC(=O)[C@H](Cc1c[nH]c2ccccc12)NC(=O)[C@H](CCC(N)=O)NC(=O)[C@@H]1CCC(=O)N1)C(C)C)C(N)=O [pQ Q W A V G H FΨCH₂S]L#]	3 nM
